In this section, each of the binders is paired with its reported MFI ratio (fold of the negative control).
molecular target: HLA-A*0201 molecule on human T2 cells (human); assay: T2 cell-stabilization assay, flow cytometry with FITC anti-HLA-A2, peptide 50 µg/mL
experimental-endpoint: MFI ratio (fold of the negative control)

INSERT INTO results (binder, reported_result) VALUES
  ('AITTILAAV (modifications not checked) [RSV F peptide No. 3 (F33-41)]', 1.5),
  ('KLMSNNVQI (modifications not checked) [RSV F peptide No. 15 (F295-303)]', 1.5),
  ('VILLSLIAV (modifications not checked) [RSV F peptide No. 23 (F559-567)]', 1.5);
